Organism: Rattus norvegicus
Experiment: Selectivity towards alpha 1D and alpha 1B adrenergic receptors
Measured Selectivity, listed per entry.

>  <MOLECULE>
COc1ccccc1N1CCN(CC2Nc3cc(C)ccc3S(=O)(=O)N2)CC1 (stereo unspecified)

>  <Selectivity>
0.55

$$$$
>  <MOLECULE>
COc1ccccc1N1CCN(CC2=NS(=O)(=O)c3ccc(C)cc3N2)CC1

>  <Selectivity>
0.28

$$$$
>  <MOLECULE>
COc1ccccc1N1CCN(CC2Nc3ccccc3S(=O)(=O)N2)CC1 (stereo unspecified)

>  <Selectivity>
0.23

$$$$
>  <MOLECULE>
COc1ccccc1N1CCN(CC2=NS(=O)(=O)c3ccc(Cl)cc3N2)CC1

>  <Selectivity>
38

$$$$
>  <MOLECULE>
COc1ccccc1N1CCN(CC2=NS(=O)(=O)c3ccccc3N2)CC1

>  <Selectivity>
135

$$$$
>  <MOLECULE>
COc1ccccc1N1CCN(CC2Nc3cc(Cl)ccc3S(=O)(=O)N2)CC1 (stereo unspecified)

>  <Selectivity>
1

$$$$
